- System: corn
- procedure-text: Test C pre-/postemergence test
- Format: in vivo, Zea mays
- settings: Preemergence, 250 g ai/ha
measurement-label: Plant response rating (0 to 100), Corn
Form field (numeric): enter value without unit.

Reference set, count: 2
# compound, value-observed
measured = [
    ("Cn1nc(C(F)(F)F)c(C[S+]([O-])c2ccc(Cl)c[n+]2[O-])c1Cl (racemic) [Compound 17]", 100),
    ("Cn1nc(C(F)(F)F)c(C[S+]([O-])c2cccc[n+]2[O-])c1OCC(F)(F)F (racemic) [Compound 28]", 100),
]

I am curious: what Plant response rating (0 to 100), Corn value has been reported for Cn1nc(C(F)(F)F)c(CS(=O)(=O)c2ccc(Cl)c[n+]2[O-])c1Cl [Compound 18] ?
15

I am curious: what Plant response rating (0 to 100), Corn value has been reported for Cn1nc(C(F)(F)F)c(CS(=O)(=O)c2cccc[n+]2[O-])c1OCC(F)(F)F [Compound 29] ?
98

I am curious: what Plant response rating (0 to 100), Corn value has been reported for Cn1nc(C(F)(F)F)c(C[S+]([O-])c2cc(C(F)(F)F)cc[n+]2[O-])c1Cl (racemic) [Compound 34] ?
20

I am curious: what Plant response rating (0 to 100), Corn value has been reported for CC(c1c(C(F)(F)F)nn(C)c1Cl)S(=O)(=O)c1cccc[n+]1[O-] (stereo not drawn) [Compound 10] ?
95

====

The compounds listed here are annotated with their Plant response rating, Crabgrass, Large.
- Test system: crabgrass
- procedure-text: Test A pre-/postemergence greenhouse test
- Format: in vivo, Digitaria sanguinalis
- settings: Preemergence, 500 g ai/ha; 0 to 100 scale where 0 is no effect and 100 is complete control
Form field (numeric): enter value without unit.

Reference set, count: 3
# compound, Plant response rating, Crabgrass, Large
rows = [
    ("Cn1nc(C(F)(F)F)c(CS(=O)(=O)c2ccc(Cl)c[n+]2[O-])c1OCC(F)F [Compound 93]", 90),
    ("CCc1cc[n+]([O-])c(S(=O)(=O)Cc2c(C(F)(F)F)nn(C)c2OCC(F)(F)F)c1 [Compound 60]", 100),
    ("Cn1nc(C(F)(F)F)c(C[S+]([O-])c2cc(Cl)cc[n+]2[O-])c1OCC(F)(F)F (stereo not shown) [Compound 68]", 100),
]

Now consider the entry below.
I am curious: what Plant response rating, Crabgrass, Large value has been reported for [O-][n+]1cc(Cl)ccc1[S+]([O-])Cc1c(C(F)(F)F)nn(CC(F)(F)F)c1Cl (stereo not shown) [Compound 47] ?
100

====

The molecules listed here are annotated with their Plant response rating, Nutsedge, Yellow.
- Test system: yellow nutsedge
- procedure-text: Test C pre-/postemergence test
- Assay type: in vivo, Cyperus esculentus
- settings: Preemergence, 31 g ai/ha; scale 0 to 100 (0 no effect, 100 complete control)
Form field (numeric): enter value without unit.

Reference set, count: 4
# molecule, value-observed
rows = [
    ("Cn1nc(C(F)(F)F)c(C(Cl)S(=O)(=O)c2cccc[n+]2[O-])c1OCC(F)(F)F (racemic) [Compound 36]", 0),
    ("Cn1nc(C(F)(F)F)c(C[S+]([O-])c2ccc(F)c[n+]2[O-])c1OC(F)F (centres unmarked) [Compound 58]", 0),
    ("Cn1nc(C(F)(F)F)c(C[S+]([O-])c2cc(Cl)cc[n+]2[O-])c1Cl (racemic) [Compound 39]", 50),
    ("[O-][n+]1cc(Cl)ccc1[S+]([O-])Cc1c(C(F)(F)F)nn(CC(F)(F)F)c1Cl (centres unmarked) [Compound 47]", 0),
]

I am curious: what Plant response rating, Nutsedge, Yellow value has been reported for CCc1cc[n+]([O-])c(S(=O)(=O)Cc2c(C(F)(F)F)nn(C)c2OC(F)F)c1 [Compound 102] ?
0

====

The compounds listed here are annotated with their Plant response rating, Ducksalad.
- Test system: duck salad
- procedure-text: Test C flooded paddy test
- Assay type: in vivo, Heteranthera limosa
- settings: Flood, 125 g ai/ha; scale 0 to 100, 0 no effect, 100 complete control; 13 to 15 days
Form field (numeric): enter value without unit.

# compound, measurement-label, value-observed
measured = [
    ("Cc1cc[n+]([O-])c(S(=O)(=O)C(Cl)c2c(C(F)(F)F)nn(C)c2OCC(F)(F)F)c1 (racemic) [Compound 37]", "Plant response rating, Ducksalad", 85),
]

I am curious: what Plant response rating, Ducksalad value has been reported for Cc1ccc[n+]([O-])c1S(=O)(=O)Cc1c(C(F)(F)F)nn(C)c1OC(F)F [Compound 113] ?
0

I am curious: what Plant response rating, Ducksalad value has been reported for Cc1cc[n+]([O-])c(S(=O)(=O)C(Cl)c2c(C(F)(F)F)nn(C)c2Cl)c1 (racemic) [Compound 22] ?
85

I am curious: what Plant response rating, Ducksalad value has been reported for Cn1nc(C(F)(F)F)c(C[S+]([O-])c2cc(Cl)cc[n+]2[O-])c1Cl (racemic) [Compound 39] ?
90

I am curious: what Plant response rating, Ducksalad value has been reported for Cn1nc(C(F)(F)F)c(C[S+]([O-])c2cc(Br)cc[n+]2[O-])c1Cl (racemic) [Compound 35] ?
85

I am curious: what Plant response rating, Ducksalad value has been reported for Cn1nc(C(F)(F)F)c(CS(=O)(=O)c2ccc(Br)c[n+]2[O-])c1OC(F)F [Compound 13] ?
0

I am curious: what Plant response rating, Ducksalad value has been reported for Cc1cc[n+]([O-])c([S+]([O-])C(C)c2c(C(F)(F)F)nn(C)c2Cl)c1 (mixture of isomers) [Compound 15] ?
80

I am curious: what Plant response rating, Ducksalad value has been reported for Cn1nc(C(F)(F)F)c(CS(=O)(=O)c2cc(C(C)(C)C)cc[n+]2[O-])c1OC(F)F [Compound 25] ?
60

I am curious: what Plant response rating, Ducksalad value has been reported for CC(c1c(C(F)(F)F)nn(C)c1OC(F)F)S(=O)(=O)c1ccc(Br)c[n+]1[O-] (racemic) [Compound 23] ?
70

I am curious: what Plant response rating, Ducksalad value has been reported for Cn1nc(C(F)(F)F)c(C[S+]([O-])c2cc(C(F)(F)F)cc[n+]2[O-])c1Cl (racemic) [Compound 34] ?
80

I am curious: what Plant response rating, Ducksalad value has been reported for CC(c1c(C(F)(F)F)nn(C)c1OC(F)F)S(=O)(=O)c1cc(C(C)(C)C)cc[n+]1[O-] (racemic) [Compound 26] ?
65

I am curious: what Plant response rating, Ducksalad value has been reported for Cn1nc(C(F)(F)F)c(CS(=O)(=O)c2cccc[n+]2[O-])c1Cl [Compound 9] ?
85

I am curious: what Plant response rating, Ducksalad value has been reported for Cn1nc(C(F)(F)F)c(C[S+]([O-])c2cccc[n+]2[O-])c1Cl (centres unmarked) [Compound 8] ?
50

I am curious: what Plant response rating, Ducksalad value has been reported for Cc1cc[n+]([O-])c([S+]([O-])Cc2c(C(F)(F)F)nn(C)c2OCC(F)(F)F)c1 (racemic) [Compound 30] ?
100

I am curious: what Plant response rating, Ducksalad value has been reported for CC(c1c(C(F)(F)F)nn(C)c1OCC(F)(F)F)S(=O)(=O)c1cccc[n+]1[O-] (racemic) [Compound 33] ?
45

I am curious: what Plant response rating, Ducksalad value has been reported for Cc1cc[n+]([O-])c([S+]([O-])Cc2c(C(F)(F)F)nn(C)c2Cl)c1 (racemic) [Compound 20] ?
0

I am curious: what Plant response rating, Ducksalad value has been reported for CC(c1c(C(F)(F)F)nn(CC(F)(F)F)c1Cl)S(=O)(=O)c1ccc(Cl)c[n+]1[O-] (centres unmarked) [Compound 55] ?
60

====

- Tested on: common (oilseed) sunflower
- procedure-text: Test C pre-/postemergence test
- Format: in vivo, Helianthus annuus
- settings: 62 g ai/ha, Preemergence; scale 0 to 100
- From the text: Seeds of plant species selected from blackgrass (Alopecurus myosuroides), downy brome (Bromus tectorum), green foxtail (Setaria viridis), Italian ryegrass (Lolium multiflorum), wheat (Triticum aestivum), wild oat (Avena fatua), catchweed bedstraw (Galium aparine), Russian thistle (Salsola kali), […] […]
The compounds listed here are annotated with their Sunflower plant response rating.
Form field (numeric): enter value without unit.

Reference set, count: 3
# smiles-data, assayed-target, value-observed
data = [
    ("Cn1nc(C(F)(F)F)c(CS(=O)(=O)c2cc(C(C)(C)C)cc[n+]2[O-])c1OC(F)F", "common (oilseed) sunflower", 0),
    ("Cn1nc(OC(F)F)c(CS(=O)(=O)c2cccc[n+]2[O-])c1C(F)(F)F", "common (oilseed) sunflower", 20),
    ("CCc1cc[n+]([O-])c(S(=O)(=O)Cc2c(C(F)(F)F)nn(C)c2OC(F)F)c1", "common (oilseed) sunflower", 0),
]

Now consider the entry below.
I am curious: what Sunflower plant response rating value has been reported for Cn1nc(C(F)(F)F)c(CS(=O)(=O)c2cccc[n+]2[O-])c1OCC(F)F ?
0
